The origin of these recorded values is PubChem BioAssay (NCI).

System: CCRF-CEM leukemia
assay details: NCI tumour cell line growth inhibition, 48 h; in the data active means GI50 below about 0.43 µM; inactive means the rest
Response enum: active, inactive

Field: example entries. Status: answers known.
compound	assigned class
Cn1cnc2nc(Cl)nc(Cl)c21	inactive
Cc1cc(N2CCOCC2)nc(N(CCNc2ccnc3cc(Cl)ccc23)Cc2cccs2)n1	inactive
COc1ccc(N2CCN(CC(=O)N3CCN(c4nnc(-c5ccc(Cl)cc5)c(-c5ccc(Cl)cc5)n4)CC3)CC2)cc1	inactive
COC(=O)c1cc2c([nH]c3ccccc32)c(-c2nc3cc(N(S(=O)(=O)c4ccc(C)cc4)S(=O)(=O)c4ccc(C)cc4)c(OC)cc3cc2CO)n1	inactive
O=C(CCc1nnc2s/c(=C\c3ccc(Cl)cc3Cl)c(=O)n12)Nc1cc(Cl)c(Cl)cc1Cl	inactive
CNCc1ccc(C)c(NC(=O)c2ccc(Nc3nc(-c4ccccc4)c4ccccc4n3)cc2)c1	inactive
COc1ccc(C(=O)CC(Cl)=C(Cl)Cl)cc1	inactive
COC(=O)[C@@H](C)C[C@H](Cc1ccccc1)NC(=O)c1cccc([C@@H](C[C@H](C(C)C)N(C)C(=O)[C@@H](NC(=O)[C@H]2CCCCN2C)C(C)C)OC(C)=O)n1	active
CCOC(=O)c1ccccc1NC(c1ccccc1)c1ccc2cccnc2c1O (stereo not given)	inactive

INPUT: Identify the outcome logged in this assay for the compound shown: COc1cc2c(cc1Nc1nc(Nc3ccsc3C(N)=O)c3cc[nH]c3n1)N(C(=O)CN(C)C)CCC2
OUTPUT: active

---

System: HOP-62 NSCLC
assay details: NCI tumour cell line growth inhibition, 48 h; in the data active = GI50 below about 0.43 µM; inactive = the rest
Response enum: class 1 for active, class 0 for inactive

Field: example entries. Status: answers known.
compound	target desc	assigned class
CN(C)c1ccc(/C=C/C(=O)c2ccc(Nc3nc(Nc4ccc(F)cc4)nc(Nc4ccc(Cl)cc4)n3)cc2)cc1	HOP-62 NSCLC	class 0
Cc1cc(N2CCOCC2)nc(N(CCNc2ccnc3cc(Cl)ccc23)Cc2cccs2)n1	HOP-62 NSCLC	class 0
N#CC1=C(N)Oc2c(ccc3ccccc23)C1c1ccccc1Cl (stereo not given)	HOP-62 NSCLC	class 1
COc1c(C)cnc(Cn2cnc3c(Cl)nc(N)nc32)c1C	HOP-62 NSCLC	class 1
Cn1cnc2nc(Cl)nc(Cl)c21	HOP-62 NSCLC	class 0
Cc1ccc(S(=O)(=O)NC(CCCCN)C(=O)CCl)cc1 (stereo not given)	HOP-62 NSCLC	class 0
Cc1cccc(NC(=O)c2sc3nc4c(cc3c2N)CCC4)c1C	HOP-62 NSCLC	class 0
COc1ccc(C2CC(c3cccc(Nc4ccnc5cc(Cl)ccc45)c3)=NN2c2ccc(Cl)cc2)cc1 (stereo not given)	HOP-62 NSCLC	class 0

INPUT: Identify the outcome logged in this assay for the compound shown: Cn1cc(C2=C(c3cn(CCCSC(=N)N)c4ccccc34)C(=O)NC2=O)c2ccccc21
OUTPUT: class 0

INPUT: Identify the outcome logged in this assay for the compound shown: CCCCCCn1c(=N)n(CC(O)COc2cccc(C)c2)c2ccccc21 (stereo not given)
OUTPUT: class 0

---

System: ACHN renal
assay details: NCI tumour cell line growth inhibition, 48 h
observation type: TGI (µM)
A number alone suffices; assume µM.

Would you please look over these solved cases?
Oc1c(Br)cc(Br)c2cccnc12 18.6
COc1c(-c2ccc3c(c2)OCO3)oc2cc3c(c(OC)c2c1=O)OCO3 63

Now for another entry.
INPUT: Consider the molecule Cn1cc(C2=C(c3cn(CCCSC(=N)N)c4ccccc34)C(=O)NC2=O)c2ccccc21 and give its measured TGI.
OUTPUT: 9.31
